Below, each entry is listed alongside its reported % Enzyme Activity (relative to DMSO controls), Data 1.
- ASSAY_TARGET: NEK2 (Homo sapiens)
- Construct: purchased ReactionBiology
- Sequence (P51955 whole entry): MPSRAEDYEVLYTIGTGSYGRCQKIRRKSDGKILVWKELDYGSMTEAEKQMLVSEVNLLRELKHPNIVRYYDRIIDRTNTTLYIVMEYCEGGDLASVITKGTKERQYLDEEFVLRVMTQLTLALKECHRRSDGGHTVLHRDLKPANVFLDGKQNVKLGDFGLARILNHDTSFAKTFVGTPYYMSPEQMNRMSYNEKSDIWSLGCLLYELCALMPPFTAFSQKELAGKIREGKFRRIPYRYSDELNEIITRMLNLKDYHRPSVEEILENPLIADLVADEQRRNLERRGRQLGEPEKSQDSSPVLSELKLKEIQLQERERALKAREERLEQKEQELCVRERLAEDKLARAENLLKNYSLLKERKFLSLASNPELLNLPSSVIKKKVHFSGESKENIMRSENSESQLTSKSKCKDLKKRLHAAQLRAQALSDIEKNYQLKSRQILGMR
- ASSAY_PROTOCOL: Kinase activity test (ReactionBiology), % enzyme activity relative to DMSO
- Assay type: biochemical
- EXPERIMENTAL_CONTEXT: NEK2; 1 uM; replicate Data 1
OUTCOME_MEASURE: % Enzyme Activity (relative to DMSO controls), Data 1 (%)

>  <COMPOUND>
CCc1nc(N)nc(N)c1-c1ccc(Cl)cc1 [Pyrimethamine]

>  <REPORTED_RESULT>
107.69

$$$$
>  <COMPOUND>
N[C@H]1C(O)O[C@H](CO)[C@@H](O)[C@@H]1O (some centres unmarked) [Glucosamine]

>  <REPORTED_RESULT>
79.92

$$$$
>  <COMPOUND>
C[C@H](O)[C@H](O)[C@H]1CNc2nc(N)[nH]c(=O)c2N1 [Sapropterin]

>  <REPORTED_RESULT>
92.46

$$$$
>  <COMPOUND>
Nc1nc2c(ncn2COCCO)c(=O)[nH]1 [Acyclovir]

>  <REPORTED_RESULT>
83.95

$$$$
>  <COMPOUND>
Cc1nc(=O)c2cc(CN(C)c3ccc(C(=O)N[C@@H](CCC(=O)O)C(=O)O)s3)ccc2[nH]1 [Raltitrexed]

>  <REPORTED_RESULT>
108.18

$$$$
>  <COMPOUND>
Cc1nnc(C(C)C)n1C1C[C@H]2CC[C@@H](C1)N2CC[C@H](NC(=O)C1CCC(F)(F)CC1)c1ccccc1 (stereo in doubt) [Maraviroc]

>  <REPORTED_RESULT>
89.78

$$$$
>  <COMPOUND>
Nc1nc2[nH]cnc2c(=S)[nH]1 [Thioguanine]

>  <REPORTED_RESULT>
91.41

$$$$
>  <COMPOUND>
O=C(O)c1cc(-c2ccc(F)cc2F)ccc1O [Diflunisal]

>  <REPORTED_RESULT>
87.06

$$$$
>  <COMPOUND>
CC(=O)CCCCn1c(=O)c2c(ncn2C)n(C)c1=O [Pentoxifylline]

>  <REPORTED_RESULT>
91.06

$$$$
>  <COMPOUND>
CCCc1nn(C)c2c(=O)[nH]c(-c3cc(S(=O)(=O)N4CCN(C)CC4)ccc3OCC)nc12 [Sildenafil]

>  <REPORTED_RESULT>
95.77

$$$$
>  <COMPOUND>
O=C1Nc2ccc(Cl)cc2[C@@](C#CC2CC2)(C(F)(F)F)O1 [Efavirenz]

>  <REPORTED_RESULT>
110.94

$$$$

###

- ASSAY_TARGET: VEGFR2 (Homo sapiens)
- ASSAY_PROTOCOL: Kinase activity test (ReactionBiology), % enzyme activity relative to DMSO
- Format: biochemical
- Set-up: purchased ReactionBiology
- EXPERIMENTAL_CONTEXT: VEGFR2; 1 uM; replicate Data 2
Below, each entry is listed alongside its reported % Enzyme Activity (relative to DMSO controls), Data 2.
OUTCOME_MEASURE: % Enzyme Activity (relative to DMSO controls), Data 2 (%)

>  <COMPOUND>
C[C@]12CCC(=O)C=C1CC[C@@H]1[C@@H]2[C@@H](O)C[C@@]2(C)[C@H]1CC[C@]2(O)C(=O)CO [Hydrocortisone]

>  <ASSAY_TARGET>
VEGFR2 (Homo sapiens)

>  <REPORTED_RESULT>
100.27

$$$$
>  <COMPOUND>
CCc1nc(N)nc(N)c1-c1ccc(Cl)cc1 [Pyrimethamine]

>  <ASSAY_TARGET>
VEGFR2 (Homo sapiens)

>  <REPORTED_RESULT>
110.52

$$$$
>  <COMPOUND>
C[C@]12CC[C@@H]3c4ccc(O)cc4CC[C@H]3[C@@H]1CCC2=O [Estrone]

>  <ASSAY_TARGET>
VEGFR2 (Homo sapiens)

>  <REPORTED_RESULT>
103.87

$$$$

###

- ASSAY_TARGET: VEGFR2 (Homo sapiens, UniProt P35968)
- Sequence (P35968 20-1356): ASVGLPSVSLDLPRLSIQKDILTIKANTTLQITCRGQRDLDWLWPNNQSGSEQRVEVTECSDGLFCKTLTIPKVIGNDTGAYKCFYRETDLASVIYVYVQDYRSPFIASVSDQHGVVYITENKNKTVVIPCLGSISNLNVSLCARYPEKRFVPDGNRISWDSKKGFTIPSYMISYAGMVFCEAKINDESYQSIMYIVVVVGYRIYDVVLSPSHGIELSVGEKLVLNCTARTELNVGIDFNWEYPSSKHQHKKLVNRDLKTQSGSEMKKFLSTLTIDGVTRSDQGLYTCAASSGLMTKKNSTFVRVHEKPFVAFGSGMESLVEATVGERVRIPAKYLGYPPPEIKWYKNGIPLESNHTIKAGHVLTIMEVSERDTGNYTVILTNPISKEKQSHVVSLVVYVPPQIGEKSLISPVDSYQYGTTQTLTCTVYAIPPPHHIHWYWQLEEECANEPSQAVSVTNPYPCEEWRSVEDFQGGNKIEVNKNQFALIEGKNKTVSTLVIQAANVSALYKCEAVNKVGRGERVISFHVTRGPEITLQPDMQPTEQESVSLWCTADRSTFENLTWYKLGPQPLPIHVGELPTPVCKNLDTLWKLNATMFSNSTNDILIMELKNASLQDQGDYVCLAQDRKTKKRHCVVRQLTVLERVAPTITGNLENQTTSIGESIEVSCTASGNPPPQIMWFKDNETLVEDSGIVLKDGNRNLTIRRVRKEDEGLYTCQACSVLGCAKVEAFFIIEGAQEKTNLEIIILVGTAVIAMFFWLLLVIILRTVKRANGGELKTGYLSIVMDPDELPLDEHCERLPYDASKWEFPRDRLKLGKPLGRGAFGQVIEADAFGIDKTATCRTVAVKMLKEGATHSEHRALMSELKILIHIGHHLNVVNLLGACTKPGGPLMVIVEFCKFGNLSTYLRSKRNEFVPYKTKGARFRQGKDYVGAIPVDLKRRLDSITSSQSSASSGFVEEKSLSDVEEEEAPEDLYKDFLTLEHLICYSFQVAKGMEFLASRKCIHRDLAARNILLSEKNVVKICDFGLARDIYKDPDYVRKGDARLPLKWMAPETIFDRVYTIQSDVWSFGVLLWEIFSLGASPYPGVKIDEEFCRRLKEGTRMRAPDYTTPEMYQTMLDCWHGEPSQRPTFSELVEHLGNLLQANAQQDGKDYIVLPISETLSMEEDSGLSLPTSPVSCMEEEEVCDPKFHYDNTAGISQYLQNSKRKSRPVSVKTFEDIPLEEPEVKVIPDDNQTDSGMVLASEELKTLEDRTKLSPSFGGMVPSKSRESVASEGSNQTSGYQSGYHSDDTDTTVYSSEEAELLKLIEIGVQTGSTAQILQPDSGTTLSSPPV
- ASSAY_PROTOCOL: Kinase activity test (ReactionBiology), % enzyme activity relative to DMSO;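 on % Enzyme Activity (relative to DMSO controls), Data 2: VEGFR2 was one member of a ten-kinase screening panel testing marketed FDA-approved drugs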
- Assay type: biochemical
- Design: purchased ReactionBiology
- EXPERIMENTAL_CONTEXT: VEGFR2; 10 uM; replicate Data 2; read-out: % Enzyme Activity (relative to DMSO controls), Data 2

>  <MOLECULE>
O=C(O)c1ccccc1O

>  <ASSAY_TARGET>
VEGFR2 (Homo sapiens, UniProt P35968)

>  <remaining activity at 10 µM, %>
99.4

$$$$
>  <MOLECULE>
CS(=O)(=O)c1ccc(C(=O)Nc2ccc(Cl)c(-c3ccccn3)c2)c(Cl)c1

>  <ASSAY_TARGET>
VEGFR2 (Homo sapiens, UniProt P35968)

>  <remaining activity at 10 µM, %>
84.5

$$$$
>  <MOLECULE>
Nc1ncnc2c1ncn2[C@@H]1O[C@H](CO)[C@@H](O)[C@H]1O [Adenosine, reference compound]

>  <ASSAY_TARGET>
VEGFR2 (Homo sapiens, UniProt P35968)

>  <remaining activity at 10 µM, %>
98.2

$$$$
>  <MOLECULE>
NC(=O)c1cccnc1 [Niacinamide, reference compound]

>  <ASSAY_TARGET>
VEGFR2 (Homo sapiens, UniProt P35968)

>  <remaining activity at 10 µM, %>
101

$$$$
>  <MOLECULE>
CC(C)c1nc(CN(C)C(=O)N[C@H](C(=O)N[C@@H](Cc2ccccc2)C[C@H](O)[C@H](Cc2ccccc2)NC(=O)OCc2cncs2)C(C)C)cs1 [Ritonavir, reference compound]

>  <ASSAY_TARGET>
VEGFR2 (Homo sapiens, UniProt P35968)

>  <remaining activity at 10 µM, %>
106

$$$$
>  <MOLECULE>
C=CC(=O)N1CCC[C@@H](n2nc(-c3ccc(Oc4ccccc4)cc3)c3c(N)ncnc32)C1 [Ibrutinib, reference compound]

>  <ASSAY_TARGET>
VEGFR2 (Homo sapiens, UniProt P35968)

>  <remaining activity at 10 µM, %>
1.53

$$$$
>  <MOLECULE>
Cc1cccc(C)c1OCC(=O)N[C@@H](Cc1ccccc1)[C@@H](O)C[C@H](Cc1ccccc1)NC(=O)[C@H](C(C)C)N1CCCNC1=O [Lopinavir, reference compound]

>  <ASSAY_TARGET>
VEGFR2 (Homo sapiens, UniProt P35968)

>  <remaining activity at 10 µM, %>
95

$$$$
>  <MOLECULE>
Oc1cc(Cl)ccc1Oc1ccc(Cl)cc1Cl [Triclosan, reference compound]

>  <ASSAY_TARGET>
VEGFR2 (Homo sapiens, UniProt P35968)

>  <remaining activity at 10 µM, %>
99.9

$$$$

###

- Tested on: RPMI1788 cells
- ASSAY_PROTOCOL: WST-1 cytotoxicity assay on RPMI1788 cells (B-cell line)
- Assay type: cell-based, human
- EXPERIMENTAL_CONTEXT: 48 h; mean of 4 independent measures; read-out: Cytotoxicity, WST-1 RPMI 1788 IC 50 (µM) Mean

>  <COMPOUND>
COc1c(C)c2c(c(O)c1C/C=C(\C)CCC(=O)OCCN1CCOCC1)C(=O)OC2 [Mycophenolate Mofetyl]

>  <IC50 (µM)>
0.487

$$$$

###

- ASSAY_TARGET: DAPK1 (Homo sapiens)
- Construct: purchased ReactionBiology
- Sequence (P53355 whole entry): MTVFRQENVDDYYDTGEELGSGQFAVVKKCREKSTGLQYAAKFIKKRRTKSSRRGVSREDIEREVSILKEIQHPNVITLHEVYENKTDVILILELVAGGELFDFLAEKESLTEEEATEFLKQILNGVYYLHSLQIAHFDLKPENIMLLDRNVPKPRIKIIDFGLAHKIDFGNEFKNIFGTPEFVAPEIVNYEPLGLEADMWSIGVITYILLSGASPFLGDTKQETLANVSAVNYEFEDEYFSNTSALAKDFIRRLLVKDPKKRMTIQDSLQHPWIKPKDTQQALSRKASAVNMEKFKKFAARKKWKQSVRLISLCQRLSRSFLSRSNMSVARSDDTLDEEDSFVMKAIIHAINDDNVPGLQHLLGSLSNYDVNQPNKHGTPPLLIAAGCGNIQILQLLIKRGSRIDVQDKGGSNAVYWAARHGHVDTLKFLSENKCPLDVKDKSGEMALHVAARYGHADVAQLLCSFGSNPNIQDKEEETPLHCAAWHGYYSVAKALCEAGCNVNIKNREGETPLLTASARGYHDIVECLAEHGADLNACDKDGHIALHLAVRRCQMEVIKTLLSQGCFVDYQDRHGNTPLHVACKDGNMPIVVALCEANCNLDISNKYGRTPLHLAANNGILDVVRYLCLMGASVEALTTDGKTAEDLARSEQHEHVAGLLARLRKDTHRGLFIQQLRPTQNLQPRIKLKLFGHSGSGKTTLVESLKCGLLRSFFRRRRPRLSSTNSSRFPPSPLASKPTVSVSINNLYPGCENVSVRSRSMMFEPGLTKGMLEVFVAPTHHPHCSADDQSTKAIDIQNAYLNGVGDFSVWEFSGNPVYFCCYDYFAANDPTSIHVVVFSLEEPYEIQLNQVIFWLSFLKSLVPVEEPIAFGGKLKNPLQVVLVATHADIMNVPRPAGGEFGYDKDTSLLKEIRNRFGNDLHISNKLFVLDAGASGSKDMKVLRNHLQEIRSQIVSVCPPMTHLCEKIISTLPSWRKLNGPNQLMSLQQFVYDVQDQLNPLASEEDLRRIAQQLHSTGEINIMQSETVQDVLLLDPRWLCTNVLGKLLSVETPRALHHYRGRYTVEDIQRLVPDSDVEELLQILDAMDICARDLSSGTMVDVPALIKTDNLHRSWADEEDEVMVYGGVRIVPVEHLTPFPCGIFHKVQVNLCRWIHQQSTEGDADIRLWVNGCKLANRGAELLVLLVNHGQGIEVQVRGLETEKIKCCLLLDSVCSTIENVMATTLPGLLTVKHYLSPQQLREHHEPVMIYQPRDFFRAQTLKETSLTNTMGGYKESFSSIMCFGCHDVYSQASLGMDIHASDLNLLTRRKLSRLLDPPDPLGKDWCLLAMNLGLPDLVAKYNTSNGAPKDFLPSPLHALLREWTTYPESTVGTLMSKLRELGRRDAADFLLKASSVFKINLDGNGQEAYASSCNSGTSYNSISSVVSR
- ASSAY_PROTOCOL: Kinase activity test (ReactionBiology), % enzyme activity relative to DMSO
- Type: biochemical
- EXPERIMENTAL_CONTEXT: DAPK1; compound 1μM; relative to DMSO controls; read-out: % Enzyme activity at 1μM

>  <COMPOUND>
CC(C)(C)NC(=O)[C@@H]1C[C@@H]2CCCC[C@@H]2CN1C[C@@H](O)[C@H](Cc1ccccc1)NC(=O)[C@H](CC(N)=O)NC(=O)c1ccc2ccccc2n1 [Saquinavir, reference compound]

>  <remaining activity at 1 µM>
87.1%

$$$$
>  <COMPOUND>
C[C@]12CC[C@@H]3c4ccc(O)cc4CC[C@H]3[C@@H]1CC[C@@H]2O [Estradiol, reference compound]

>  <remaining activity at 1 µM>
111%

$$$$
>  <COMPOUND>
CC(C)c1nc(CN(C)C(=O)N[C@H](C(=O)N[C@@H](Cc2ccccc2)C[C@H](O)[C@H](Cc2ccccc2)NC(=O)OCc2cncs2)C(C)C)cs1 [Ritonavir, reference compound]

>  <remaining activity at 1 µM>
92.6%

$$$$

###

- ASSAY_TARGET: CK1d (Homo sapiens, UniProt P48730)
- Construct: purchased ReactionBiology
- Sequence (P48730 whole entry): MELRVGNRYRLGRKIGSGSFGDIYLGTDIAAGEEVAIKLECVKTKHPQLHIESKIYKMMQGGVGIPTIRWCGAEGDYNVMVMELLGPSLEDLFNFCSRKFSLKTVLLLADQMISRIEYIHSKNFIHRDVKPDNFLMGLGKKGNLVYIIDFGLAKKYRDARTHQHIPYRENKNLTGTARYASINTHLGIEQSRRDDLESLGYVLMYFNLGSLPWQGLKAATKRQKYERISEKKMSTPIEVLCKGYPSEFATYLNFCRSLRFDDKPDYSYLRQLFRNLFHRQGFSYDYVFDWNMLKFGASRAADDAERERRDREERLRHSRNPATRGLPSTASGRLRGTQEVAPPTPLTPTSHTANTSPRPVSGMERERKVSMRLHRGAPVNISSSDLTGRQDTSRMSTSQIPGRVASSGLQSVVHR
- ASSAY_PROTOCOL: Kinase activity test (ReactionBiology), % enzyme activity relative to DMSO
- Type: biochemical
- EXPERIMENTAL_CONTEXT: CK1d; 10 uM; replicate Data 1; read-out: % Enzyme Activity (relative to DMSO controls), Data 1
OUTCOME_MEASURE: remaining activity at 10 µM (%)

>  <COMPOUND>
Oc1cc(Cl)ccc1Oc1ccc(Cl)cc1Cl [Triclosan, reference compound]

>  <REPORTED_RESULT>
97.8

$$$$
>  <COMPOUND>
CC/C(=C(/CC)c1ccc(O)cc1)c1ccc(O)cc1 [Diethylstilbestrol, reference compound]

>  <REPORTED_RESULT>
84.6

$$$$
>  <COMPOUND>
NCCCCCC(=O)O [Aminocaproic acid]

>  <REPORTED_RESULT>
122

$$$$
>  <COMPOUND>
N[C@@H](Cc1cc(I)c(Oc2cc(I)c(O)c(I)c2)c(I)c1)C(=O)O [Thyroxine, reference compound]

>  <REPORTED_RESULT>
99.7

$$$$
>  <COMPOUND>
Cc1cccc(C)c1OCC(=O)N[C@@H](Cc1ccccc1)[C@@H](O)C[C@H](Cc1ccccc1)NC(=O)[C@H](C(C)C)N1CCCNC1=O [Lopinavir, reference compound]

>  <REPORTED_RESULT>
113

$$$$
